- reportedConditions: human gut metagenome, 24 h, 2 µM;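 also: anaerobic incubation with a human gut microbial community sample, drug level tracked by LC–MS at 9 sampling points across 0–24 h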; also: call rule not given here

compound	Bacterial Biotransformation
COC1=CC(=O)C[C@@H](C)[C@]12Oc1c(Cl)c(OC)cc(OC)c1C2=O	Compound metabolized
CS(=O)(=O)O.O.O.O.O=C1Cc2cc(CCN3CCN(c4nsc5ccccc45)CC3)c(Cl)cc2N1 [ZIPRASIDONE MESYLATE]	Compound metabolized
O=C1[C@H](CC[C@H](O)c2ccc(F)cc2)[C@@H](c2ccc(O)cc2)N1c1ccc(F)cc1	Compound NOT metabolized
C[C@@H]1C[C@H]2[C@@H]3CCC4=CC(=O)C=C[C@]4(C)[C@@]3(F)[C@@H](O)C[C@]2(C)[C@@]1(O)C(=O)CO	Compound NOT metabolized
